Test system: MCF7
Assay name: NCI tumour cell line growth inhibition, 48 h
The source made the active and inactive calls. Rule as the data show it: active = GI50 up to about 1.1 µM and inactive = higher.
Attribute measured: GI50

Reference set, count: 4
- Cc1cc2ccccc2c[n+]1CC(O)C[n+]1cc2ccccc2cc1C: > 100 µM (inactive)
- CC1(CO)COS(=O)OC1 (stereo not given): > 100 µM (inactive)
- Cc1ccc(C2(O)c3ccccc3C(=O)N(C)C2(O)c2ccc(C)cc2)cc1 (stereo not given): 38.9 µM (inactive)
- COc1ccc2nc3cc(Cl)ccc3c(NCCCCCC(=O)NC(COc3ccc4ccc5cccnc5c4n3)COc3ccc4ccc5cccnc5c4n3)c2c1: 2.23 µM (inactive)

Ask | Can you look up the measured GI50 of `N#CCCN(CCCCN(CCC#N)C(=O)Nc1ccccc1)C(=O)Nc1ccccc1` for me?
Reply | > 100 µM (inactive)
